Recorded values, source the supplement of paper PMC9170038.

# Test system: MS2 coat protein
# EXPERIMENT_DESCRIPTION: apparent KD of MS2 coat protein; designed switch direction (-1 OFF switch, 1 ON switch): 1; higher = weaker reporter binding
# COND: input ligand: FMN 200 uM
Listing: apparent KD of MS2 coat protein of selected sequences

{"MONOMER_SEQUENCE": "GCCAACUAAUGAGGAUAUGGCACCUUAUUGGUGCCAGAAGGCAUGUCAAAAGACAUGAGGAUCACCCAUGUAUUAUAGUUGGCA [Mat - Same State NG 1 - JL mod - D73] (Eterna round: R96, puzzle: Same State NG 1)", "apparent KD of MS2 coat protein / nM": 25.5}
{"MONOMER_SEQUENCE": "CCUGCGAUAAGCGAGCGAACAUGAGGAUCACCCAUGUGGCGGCAGGAUAUGGGUGACCCAGCGACUCAGAAGGGCCGAAGCUAA [Eternabot solution 8] (Eterna round: R96, puzzle: Same State NG 3)", "apparent KD of MS2 coat protein / nM": 49.1}
{"MONOMER_SEQUENCE": "AUUAUCAAUGCAGGAUAUGAUUAACAUGAGGAUCACCCAUGUGGUGUUGUGAGUAAGGAGAGUGAUCAGAAGGGCAUUUUUUUU [JMF's solution 26] (Eterna round: R96, puzzle: Same State NG 2)", "apparent KD of MS2 coat protein / nM": 575}
{"MONOMER_SEQUENCE": "UUAAUUAAUUAAUUAUACAUGAGGAUCACCCAUGUAAGUGAUCAGGAUAUCAGCUCGUUUAGAGCUGAGAAGGGAUACAUGAAU [SSNG3/12-A3] (Eterna round: R96, puzzle: Same State NG 3)", "apparent KD of MS2 coat protein / nM": 91.6}
